Where these numbers come from: PubChem BioAssay (NCI)

test system: HS 578T breast; assay: NCI tumour cell line growth inhibition, 48 h
measuredEndpoint: TGI (µM)
API: value field is a number in µM; no unit string.

Below, each entry is followed by its recorded TGI result.
{"columns": ["molecule", "TGI (µM)"],
 "data": [
  ["O=C(N/N=C\\c1ccccc1)Nc1cccc2ccccc12", 66.7],
  ["O=C1c2ccccc2-c2nc(/C=C/c3ccccc3)cc3c2c1nc1ccccc13", 62.6],
  ["OCc1ccc(N(CCN2CCCC2)Cc2ccc(F)cc2)cc1Cl", 80.1],
  ["CS(=O)(=O)OCCN(CCOS(C)(=O)=O)c1ccc(C=O)cc1", 58],
  ["Cc1cc2nc(N3C(=O)/C(=C/c4ccc(Cl)cc4)N=C3c3ccccc3)sc2cc1C", 74.2],
  ["O=C(O)C1CCCCC1c1c2ccc(=O)cc-2oc2cc(O)ccc12 (stereo unspecified)", 96.7],
  ["CCN(CC)C(=O)N1CN(c2ccccc2)C2(CCN(CCCSc3ccc(F)cc3)CC2)C1=O", 16.6],
  ["CCNCCCn1c2c(c3ccc([N+](=O)[O-])cc3c1=O)C(=O)c1cc(OC)cnc1-2", 4.33]
]}

The observed TGI for NC1=Nc2cc(OCCCN3Cc4ccccc4C3)c(OCC3CC3)cc2C12CCCC2 when tested with HS 578T breast stands at 17.7

The observed TGI for c1ccc(C(CCN2CC3CCC(CC3)C2)c2ccccc2)cc1 when tested with HS 578T breast stands at 50.5

The observed TGI for CN1CCN(c2ccc(C(=O)Nc3cc(-c4cccc(NS(=O)(=O)c5ccccc5)c4)[nH]n3)cc2)CC1 when tested with HS 578T breast stands at 10.4

The observed TGI for COc1ccc2c(c1)C1(C(=O)N2)C(C#N)=C(c2ccccc2)Nc2c1c(-c1ccccc1)nn2-c1ccccc1 (stereo unspecified) when tested with HS 578T breast stands at 19.3

---

tested on: SNB-75 CNS; experiment: NCI tumour cell line growth inhibition, 48 h
Use condition met when the recorded TGI is no lower than 70 µM; use condition not met when it is lower.

// inclusive: TGI at least 70 µM? input: COc1ccccc1NC(=O)O/N=C(/Cl)C(C)C
condition not met

// inclusive: TGI at least 70 µM? input: COc1ccc(Oc2nc(C#CC(C)(C)O)nc(Oc3ccc(OC)cc3)n2)cc1
condition not met

// inclusive: TGI at least 70 µM? input: CCN1CCC(O)(c2ccc(Oc3ccc(C)cc3)cc2)C(C(=O)c2ccc(Oc3ccc(C)cc3)cc2)C1 (stereo not given)
condition not met

// inclusive: TGI at least 70 µM? input: Cc1cccc(C)c1NC(=O)CCc1n[nH]c(=S)o1
condition met

// inclusive: TGI at least 70 µM? input: S=C(Nc1ccccn1)Nc1ccccc1Cl
condition met

// inclusive: TGI at least 70 µM? input: O=C(OCc1ccccc1)N1CCN(C(=O)OCc2ccccc2)CCN(C(=O)OCc2ccccc2)CCN(C(=O)OCc2ccccc2)CCN(C(=O)OCc2ccccc2)CC1
condition met

// inclusive: TGI at least 70 µM? input: Nc1ncnc2c1cnn2Cc1ccc(Cl)cc1
condition met

// inclusive: TGI at least 70 µM? input: O=C1c2ccccc2-c2nc(/C=C/c3ccccc3)cc3c2c1nc1ccccc13
condition not met

---

system: TK-10 renal; assay: NCI tumour cell line growth inhibition, 48 h
measuredEndpoint: log10(TGI) (log10 of the value in µM)
Base-10 log of TGI, unit µM.

Below, each entry is followed by its recorded log10(TGI) result.
{"columns": ["compound", "experimentalResult"],
 "data": [
  ["COc1ccccc1NC(=O)O/N=C(/Cl)C(C)C", 1.42],
  ["CCNCCCn1c2c(c3ccc([N+](=O)[O-])cc3c1=O)C(=O)c1cc(OC)cnc1-2", 0.17],
  ["COc1ccc(OC)c2c(=S)c3ccccc3[nH]c12", 2.00],
  ["Cc1c(N=Cc2ccc(N(CCC#N)CCC#N)cc2)c(=O)n(-c2ccccc2)n1C", 1.79],
  ["COc1ccc(N(C)c2c3ccccc3nc3[nH]c4ccccc4c23)cc1", 0.21],
  ["O=C(Nc1cccc(-n2cc(-c3ccncc3)c(-c3ccc(O)c(Cl)c3)n2)c1)Nc1cccc(C(F)(F)F)c1", 0.97]
]}

Just so you know, measured log10(TGI) for CC(=O)OC1Oc2ccccc2-c2oc(=O)c(-c3cc4ccccc4oc3=O)cc21 (stereo not given) came out at 1.57

Just so you know, measured log10(TGI) for CC(=O)OCC1OC(O/C=C(\CN=[N+]=[N-])C(C)=O)C(OC(C)=O)C(OC(C)=O)C1OC(C)=O (stereo not given) came out at 1.28

---

tested on: NCI-H23 lung; assay: NCI tumour cell line growth inhibition, 48 h
*1 amine or outer side, *2 acyl side, *3 side chain or, on linkers, in order; H or OH if unused. Where a SMILES comes first, the peptide text is derived from it. [ ]: non-standard residue; d: D form. X56 = CC[C@H](C)[C@H](OC(=O)[C@@H](C)[C@@H](CC)N[*:1])C(=O)[*:2]; X32 = C[C@H](N[*:1])C(=O)C(C)(C)C(=O)[*:2]; NMeY = CN[C@@H](Cc1ccc(O)cc1)C(=O)O; NMeL = CN[C@@H](CC(C)C)C(=O)O; NMeV = CN[C@H](C(=O)O)C(C)C
Use fulfilled when the recorded TGI is no lower than 9 µM; use not fulfilled when it is lower.

{"columns": ["compound", "category"],
 "data": [
  ["O=[N+]([O-])c1ccc2nc3ccccc3cc2c1", "not fulfilled"],
  ["CCOC(=O)Cn1c(=O)c2cc(-c3ccccc3)cc3c(Cl)nc4c(OC)c(OC)cc1c4c32", "fulfilled"],
  ["COC(=O)c1cc(C(=CCC[C@H]2CC[C@@]3(C)C(CCC4C3CC[C@@]3(C)C4CC[C@@H]3C(C)CCCC(C)C)C2)c2cc(Cl)c(OC(=O)c3ccccc3)c(C(=O)OC)c2)cc(Cl)c1OC(=O)c1ccccc1 (stereo partly specified)", "fulfilled"],
  ["O=C1C(NCCN2CCOCC2)=C(Cl)C(=O)c2ncccc21", "not fulfilled"],
  ["COC1=C(Br)C(=O)C2=C(C1=O)C1C3=C(C(=O)C=CC3=O)C2c2ccccc21 (stereo unspecified)", "fulfilled"]
]}

// inclusive: TGI at least 9 µM? input: CCSc1nnc(-c2ccc3ccccc3c2O)n1-c1ccc(Cl)cc1
fulfilled

// inclusive: TGI at least 9 µM? input: CC[C@H](C)[C@@H]1OC(=O)[C@@H](C)[C@@H](CC)NC(=O)[C@H](C)NC(=O)C(C)(C)C(=O)[C@H](C)NC(=O)[C@H](Cc2ccc(OC)cc2)N(C)C(=O)[C@H](C(C)C)N(C)C(=O)CNC(=O)[C@H](CC(C)C)N(C)C(=O)CNC1=O (cyclo(A[X56]G[NMeL]G[NMeV][NMeY](Me)[X32]))
not fulfilled

// inclusive: TGI at least 9 µM? input: COC(=O)c1ccccc1C1CN=NC12Cc1cccc(C)c1C2=O (stereo unspecified)
fulfilled

// inclusive: TGI at least 9 µM? input: CCNCCCn1c2c(c3ccc([N+](=O)[O-])cc3c1=O)C(=O)c1cc(OC)cnc1-2
not fulfilled

// inclusive: TGI at least 9 µM? input: CC(=O)O[C@H]1[C@@H](OC(C)=O)C(C)(C)/C=C/[C@H](C)C(=O)[C@@]2(OC(C)=O)C[C@@](C)(OC(C)=O)[C@H](OC(C)=O)[C@@H]2[C@H]2OC(=O)CC[C@@]2(OC(=O)c2ccccc2)[C@@H]1OCC(C)C
fulfilled

// inclusive: TGI at least 9 µM? input: CCOC(=O)C(C(=O)OCC)=C1NC2(c3ccccc3Nc3ccc(C)cc32)C(C(=O)OC)S1 (stereo unspecified)
fulfilled

// inclusive: TGI at least 9 µM? input: O=C(N/N=C\c1ccccc1)Nc1cccc2ccccc12
fulfilled

// inclusive: TGI at least 9 µM? input: O=c1cc(N=Nc2ccc(Cl)cc2)[nH]c(=O)[nH]1
fulfilled

// inclusive: TGI at least 9 µM? input: CS(=O)(=O)OCCN(CCOS(C)(=O)=O)c1ccc(C=O)cc1
fulfilled

// inclusive: TGI at least 9 µM? input: O=C1NN(c2ccccc2)C(=O)/C1=C/c1ccc(Br)o1
fulfilled

---

tested on: MCF7 breast; experiment: NCI tumour cell line growth inhibition, 48 h
measuredEndpoint: TGI (µM)
API: value field is a number in µM; no unit string.

Below, each entry is followed by its recorded TGI result.
{"columns": ["compound", "readingUnit", "TGI"],
 "data": [
  ["COC(=O)c1ccccc1C1CN=NC12Cc1cccc(C)c1C2=O (stereo unspecified)", "µM", 91.9],
  ["CC(=O)OCC1=C(C)C[C@H]([C@@H](COC(C)=O)C2CCC3C4C[C@H]5O[C@]56CC=CC(=O)[C@]6(C)C4CC[C@@]32C)OC1=O (stereo partly specified)", "µM", 2.09],
  ["O=C1NN(c2ccccc2)C(=O)/C1=C/c1ccc(Br)o1", "µM", 18.9]
]}

Just so you know, measured TGI for Cc1cc(N(CCCl)CCCl)ccc1/C=N/NC(=O)Cc1cc(=O)oc2cc(O)ccc12 came out at 20.4

Just so you know, measured TGI for NC1=Nc2cc(OCCCN3Cc4ccccc4C3)c(OCC3CC3)cc2C12CCCC2 came out at 4.03

Just so you know, measured TGI for CC(=O)OC1Oc2ccccc2-c2oc(=O)c(-c3cc4ccccc4oc3=O)cc21 (stereo unspecified) came out at 34.1

Just so you know, measured TGI for C[C@]1(O)O[C@@H]2OCC[C@@H]2C2=C1C(=O)c1ccccc1C2=O came out at 23.3

Just so you know, measured TGI for O=c1cc(N=Nc2ccc(Cl)cc2)[nH]c(=O)[nH]1 came out at 22.8

Just so you know, measured TGI for Fc1ccc2[nH]cc(SSc3c[nH]c4ccc(F)cc34)c2c1 came out at 20
